- subject.of.test: UniProt:P22455
- Sequence (P22455 22-802): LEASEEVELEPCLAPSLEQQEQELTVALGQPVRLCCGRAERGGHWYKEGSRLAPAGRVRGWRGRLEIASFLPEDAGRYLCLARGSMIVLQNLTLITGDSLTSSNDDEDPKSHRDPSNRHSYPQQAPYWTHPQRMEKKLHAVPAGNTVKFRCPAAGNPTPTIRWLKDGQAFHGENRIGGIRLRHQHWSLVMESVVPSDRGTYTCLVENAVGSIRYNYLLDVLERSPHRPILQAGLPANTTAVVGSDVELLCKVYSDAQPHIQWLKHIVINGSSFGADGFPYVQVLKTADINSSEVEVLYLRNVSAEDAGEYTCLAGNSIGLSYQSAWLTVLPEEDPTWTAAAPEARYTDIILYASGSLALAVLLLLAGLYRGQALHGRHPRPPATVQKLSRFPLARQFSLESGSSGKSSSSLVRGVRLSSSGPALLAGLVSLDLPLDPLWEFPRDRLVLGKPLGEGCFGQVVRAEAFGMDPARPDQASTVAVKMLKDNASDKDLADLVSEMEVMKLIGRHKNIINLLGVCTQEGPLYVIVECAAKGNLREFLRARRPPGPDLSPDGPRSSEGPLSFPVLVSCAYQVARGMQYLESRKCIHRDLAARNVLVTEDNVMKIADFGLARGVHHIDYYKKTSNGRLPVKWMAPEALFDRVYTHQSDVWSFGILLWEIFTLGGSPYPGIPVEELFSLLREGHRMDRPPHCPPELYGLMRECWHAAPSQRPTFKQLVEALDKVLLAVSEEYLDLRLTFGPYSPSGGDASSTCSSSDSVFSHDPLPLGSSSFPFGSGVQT
- assay.procedure: FGFR Enzymatic Assay (FRET peptide phosphorylation), FGFR4
- Format: biochemical
- measurement.parameters: FGFR4 selectivity; pre-incubated for 5 to 10 minutes
quantity.name: FGFR1/FGFR4 IC50 ratio

-- ask Provide value of FGFR1/FGFR4 IC50 ratio for this record tested with UniProt:P22455: COc1cc(OC)c(F)c(N2Cc3cnc(-c4cncc(CN5CCOCC5)c4)cc3C3(CC3)C2=O)c1F
-- reply >25

-- ask Provide value of FGFR1/FGFR4 IC50 ratio for this record tested with UniProt:P22455: COc1cc(OC)c(F)c(N2Cc3cnc(-c4cc(N)cnc4C)cc3C3(CC3)C2=O)c1F
-- reply >25

-- ask Provide value of FGFR1/FGFR4 IC50 ratio for this record tested with UniProt:P22455: COc1cc(OC)c(F)c(N2Cc3cnc(-c4cc(N)ccc4C)cc3C3(CC3)C2=O)c1F
-- reply >25

-- ask Provide value of FGFR1/FGFR4 IC50 ratio for this record tested with UniProt:P22455: COc1cc(OC)c(F)c(N2Cc3cnc(-c4cncc(S(=O)(=O)N5CCOCC5)c4)cc3C3(CC3)C2=O)c1F
-- reply >25

-- ask Provide value of FGFR1/FGFR4 IC50 ratio for this record tested with UniProt:P22455: COc1cc(OC)c(F)c(N2Cc3cnc(-c4cncc(Cl)c4)cc3C3(CC3)C2=O)c1F
-- reply >50

// switching to the query molecule
-- ask Provide value of FGFR1/FGFR4 IC50 ratio for this record tested with UniProt:P22455: COc1cncc(-c2cc3c(cn2)CN(c2c(F)c(OC)cc(OC)c2F)C(=O)C32CC2)c1
-- reply >25

Hello, the source for this data is patent US9708318B2, in case you need it.
